Target: Endothelin receptor type B (Homo sapiens, UniProt P24530)
Sequence (P24530 whole entry): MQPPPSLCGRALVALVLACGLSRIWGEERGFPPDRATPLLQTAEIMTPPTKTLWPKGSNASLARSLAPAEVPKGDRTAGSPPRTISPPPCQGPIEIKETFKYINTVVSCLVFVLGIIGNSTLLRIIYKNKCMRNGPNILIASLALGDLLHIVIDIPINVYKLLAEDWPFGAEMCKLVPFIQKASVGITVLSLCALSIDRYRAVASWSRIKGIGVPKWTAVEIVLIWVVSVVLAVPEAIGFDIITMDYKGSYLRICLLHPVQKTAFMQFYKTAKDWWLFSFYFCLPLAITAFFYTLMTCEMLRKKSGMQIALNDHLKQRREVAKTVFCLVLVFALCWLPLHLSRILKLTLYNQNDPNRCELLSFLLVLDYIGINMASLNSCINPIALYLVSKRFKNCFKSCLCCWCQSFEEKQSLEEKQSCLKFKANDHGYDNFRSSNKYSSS
Assay: Displacement of [125I]-ET-1 from human ETB receptor expressed in CHO cell membranes after 2 hrs by scintillation counting
pIC50: −log10 of the molar value.
Record criterion met whenever pIC50 is at 7 or higher; record criterion not met when lower.

For orientation, consider the following solved cases.
CCCCNS(=O)(=O)Nc1ncnc(OCCOc2ncc(OC)cn2)c1-c1ccc(Br)cc1 | criterion not met
COc1ccc(Cl)c(Oc2c(NS(C)(=O)=O)ncnc2OCCOc2ncc(S(C)(=O)=O)cn2)c1 | criterion not met
Cc1ccc(C2=C(C(=O)O)C(c3ccc4c(c3)OCO4)Oc3ccc(OC(C)C)cc32)s1 (centres undefined) | criterion not met
COc1cnc(OCCOc2nc(-c3ccncc3)nc(NS(=O)(=O)NCc3ccccc3)c2-c2ccc(Cl)cc2)nc1 | criterion not met
CCCNS(=O)(=O)Nc1ncnc(OCCOc2ncc(OC)cn2)c1-c1ccc(Br)cc1 | criterion not met
CNS(=O)(=O)Nc1ncnc(OCCOc2ncc(SC)cn2)c1-c1ccc(Br)cc1 | criterion not met

## Input Assess whether reported pIC50 for `CCCNS(=O)(=O)Nc1ncnc(OCCOc2ncc(SC)cn2)c1Oc1ccccc1OC` sits at 7 or higher.
## Output criterion not met

## Input Hello, I need to know if `Cc1ccc(=O)n([C@@H](C(=O)NS(=O)(=O)c2ccc(C(C)C)cc2)c2ccc3c(c2)OCO3)n1` has measured pIC50 not below 7. Thanks!
## Output criterion met

## Input Could you verify whether the entry `COc1nc(C)cnc1NS(=O)(=O)c1cccnc1-c1ccc(-c2nnco2)cc1` shows pIC50 of no less than 7?
## Output criterion not met

## Input Is reported pIC50 greater than or equal to 7 here: `CC#CCOc1nc(-c2ccnc(-c3nnn[nH]3)c2)nc(NS(=O)(=O)c2ccc(C(C)(C)C)cc2)c1Oc1ccccc1OC`
## Output criterion met

## Input State whether the measured pIC50 reaches 7, counting equality as reaching it, for `CCCNS(=O)(=O)Nc1ncnc(OCCOc2ncc(Br)cn2)c1Oc1ccccc1OC`
## Output criterion not met

## Input Is the recorded value of pIC50 equal to or greater than 7 for this molecule? `COc1ccccc1Oc1c(NS(=O)(=O)c2ccc(C(C)C)cn2)nc(N2CCOCC2)nc1OCC#CCOC(=O)c1ccccn1`
## Output criterion met

* * *

target: UniProt:P25101; experiment: Displacement of 125I-ET1 from human smooth muscle ETA receptor expressed in fall armyworm sf9 cell membranes
outcome.measure: pIC50
Expect pIC50 as a plain number equal to -log10 of the molar concentration.

## Input State the recorded pIC50 for this entry: `COc1cccc(Oc2c(NS(=O)(=O)c3ccc(C(C)(C)C)cc3)ncnc2OCCO)c1`
## Output 6.66

* * *

Target protein (sequence): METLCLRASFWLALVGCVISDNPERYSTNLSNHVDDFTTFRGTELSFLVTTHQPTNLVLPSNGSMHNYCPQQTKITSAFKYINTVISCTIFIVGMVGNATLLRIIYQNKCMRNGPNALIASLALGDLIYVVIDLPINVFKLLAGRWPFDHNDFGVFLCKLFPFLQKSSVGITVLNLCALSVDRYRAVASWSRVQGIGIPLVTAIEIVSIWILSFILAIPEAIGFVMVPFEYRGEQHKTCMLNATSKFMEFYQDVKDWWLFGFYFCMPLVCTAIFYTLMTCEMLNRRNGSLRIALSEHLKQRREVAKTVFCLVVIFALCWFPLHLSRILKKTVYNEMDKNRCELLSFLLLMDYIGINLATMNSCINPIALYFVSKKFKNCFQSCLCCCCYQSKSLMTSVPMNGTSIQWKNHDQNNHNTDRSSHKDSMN
outcome.measure: Ki (pM)
Quick note: give the figure in pM, leave out the unit.

## Input For `CCCc1nc(C)ccc1O[C@@H](C(=O)NS(=O)(=O)c1ccc(C(C)C)cc1)c1ccc2c(c1)OCO2` , what is its reported Ki?
## Output 110

* * *

molecular target: Endothelin receptor type B (Homo sapiens, UniProt P24530); experiment: Antagonist activity at human ETB receptor expressed in CHO cells in presence of ET1; assay type: cell-based
outcome.measure: IC50 (nM)
Write the answer as a number in nM, unit excluded.

## Input May I ask what IC50 has been recorded for `COc1ccc(-c2nc(NS(=O)(=O)c3ccc(C(C)(C)C)cc3)c(Oc3ccccc3OC)c(OC[C@H](O)CO)n2)cc1` ?
## Output 69

* * *

molecular target: Endothelin-1 receptor (Homo sapiens); experiment: Displacement of radioligand from ETA receptor (unknown origin) expressed in fall armyworm sf9 cell membranes
outcome.measure: IC50

## Input // lookup IC50 for `O=S(=O)(Nc1ncnc(OCCO)c1-c1ccc(Cl)cc1)c1ccc(Cl)cc1`
## Output 10 µM

## Input So what's the measured IC50 for this one? `COc1ccccc1Oc1c(OCCO)nc(-c2ncccn2)nc1N(C)S(=O)(=O)c1ccc(C(C)(C)C)cc1`
## Output > 100 µM

## Input What value of measured IC50 is listed for `COc1ccccc1Oc1c(NS(=O)(=O)c2ccc(C(C)(C)C)cc2)ncnc1OCCO` ?
## Output 1.5 µM

## Input Reported IC50 for `COc1ccc(-c2nc(NS(=O)(=O)c3ccc(C(C)(C)C)cc3)c(Oc3ccccc3OC)c(OC[C@H](O)CO)n2)cc1` : what is it?
## Output 6.8 µM

## Input Could you share which IC50 value was measured for `COc1ccccc1Oc1c(NS(=O)(=O)c2ccc(C(C)(C)C)cc2)nc(-c2ncccn2)[nH]c1=O` ?
## Output 133 µM

* * *

Target: Endothelin-1 receptor (Rattus norvegicus, UniProt P26684)
Sequence (P26684 whole entry): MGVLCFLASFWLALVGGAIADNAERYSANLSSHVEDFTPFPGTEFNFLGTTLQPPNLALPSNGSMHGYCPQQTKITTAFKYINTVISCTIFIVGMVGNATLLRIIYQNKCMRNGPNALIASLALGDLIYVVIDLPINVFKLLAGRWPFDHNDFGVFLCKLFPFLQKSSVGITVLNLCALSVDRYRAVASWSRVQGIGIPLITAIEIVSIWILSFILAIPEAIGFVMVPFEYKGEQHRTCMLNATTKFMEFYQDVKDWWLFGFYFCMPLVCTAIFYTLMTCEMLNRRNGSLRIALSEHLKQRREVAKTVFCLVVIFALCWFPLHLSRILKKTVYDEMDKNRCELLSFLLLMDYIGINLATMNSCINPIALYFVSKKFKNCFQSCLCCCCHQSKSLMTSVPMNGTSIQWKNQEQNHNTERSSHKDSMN
Assay: Displacement of 125I-ET1 from ETA receptor in rat A7R5 cells
outcome.measure: pIC50
Note on pIC50: it is the negative log10 of concentration, concentration in mol/L.

Examples with answers:
COc1ccccc1Oc1c(NS(=O)(=O)/C=C/c2ccccc2)nc(-c2ncccn2)nc1OCCO | 8.80
CSc1cnc(OCCOc2ncnc(NS(=O)(=O)c3ccc(C(C)(C)C)cc3)c2-c2cc3ccccc3s2)nc1 | 10.59
COc1ccccc1Oc1c(NS(=O)(=O)c2ccc(C(C)(C)C)cc2)nc(N2CCOCC2)nc1OCCC(=O)Nc1ccccc1C(C)C | 7.20

## Input Please tell me: pIC50 of `COCCOc1nc(-c2ncccn2)nc(NS(=O)(=O)CCc2ccccc2)c1Oc1ccccc1OC` , system Endothelin-1 receptor (Rattus norvegicus, UniProt P26684)?
## Output 8.44

* * *

Target: Endothelin-1 receptor (Homo sapiens)
Sequence (P25101 whole entry): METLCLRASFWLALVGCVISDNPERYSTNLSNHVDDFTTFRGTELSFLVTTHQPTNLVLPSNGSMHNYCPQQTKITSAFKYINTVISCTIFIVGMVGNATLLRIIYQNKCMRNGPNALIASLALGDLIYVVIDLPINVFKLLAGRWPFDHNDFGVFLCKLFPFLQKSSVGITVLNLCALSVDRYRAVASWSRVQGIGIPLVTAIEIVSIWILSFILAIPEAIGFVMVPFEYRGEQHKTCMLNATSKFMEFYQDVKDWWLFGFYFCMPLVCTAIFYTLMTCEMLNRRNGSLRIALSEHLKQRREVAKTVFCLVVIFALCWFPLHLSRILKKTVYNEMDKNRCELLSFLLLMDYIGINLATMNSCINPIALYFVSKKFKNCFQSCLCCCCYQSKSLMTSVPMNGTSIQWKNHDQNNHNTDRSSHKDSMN
Experiment: Displacement of [125I]-ET-1 from human ETA receptor expressed in CHO cell membranes after 2 hrs by scintillation counting
outcome.measure: pIC50
pIC50 (log units): -log10 of the concentration in mol/L.

Recorded pIC50, per entry:
CNS(=O)(=O)Nc1ncnc(OCCOc2ncc(SC)cn2)c1-c1ccc(Cl)cc1 | 8.48
CCc1cc(C2=C(C(=O)O)N(c3ccccc3C(F)(F)F)S(=O)(=O)c3ccccc32)cc2c1OCO2 | 9.30
CNS(=O)(=O)Nc1ncnc(OCCOc2ncc(SC)cn2)c1-c1ccc(Br)cc1 | 8.70
COC(c1ccccc1)(c1ccccc1)[C@H](Oc1nc(C)cc(C)n1)C(=O)O | 9.00
CCCNS(=O)(=O)Nc1ncnc(OCCOc2ncc(SC)cn2)c1Oc1ccccc1OC | 8.03
COc1ccccc1Oc1c(NS(=O)(=O)c2ccc(C(C)C)cn2)nc(N2CCOCC2)nc1OCC#CCOC(=O)c1ccccn1 | 9.00
CCCc1nc(SC2CCC(CC(=O)O)CC2)c(C(=O)O)n1Cc1cc2c(cc1Cl)OCO2 (stereo not given) | 8.96
CCCCNS(=O)(=O)Nc1ncnc(OCCOc2ncc(SC)cn2)c1-c1ccc(Cl)cc1 | 9.52
CCCNS(=O)(=O)Nc1ncnc(OCCOc2ncc(SC)cn2)c1-c1ccc(Cl)cc1 | 8.82
COc1ccc(Cl)c(Oc2c(NS(C)(=O)=O)ncnc2OCCOc2ncc(S(C)(=O)=O)cn2)c1 | 8.52

## Input Looking for the measured pIC50 of `CCNS(=O)(=O)Nc1ncnc(OCCOc2ncc(SC)cn2)c1-c1ccc(Br)cc1` , can you help?
## Output 9.15

## Input If you can, please state the reported pIC50 value of `CC#CCOc1nc(-c2ccnc(-c3nnn[nH]3)c2)nc(NS(=O)(=O)c2ccc(C(C)(C)C)cc2)c1Oc1ccccc1OC` .
## Output 7.48

## Input Endpoint output: pIC50 of Cc1ccc(C2=C(C(=O)O)C(c3ccc4c(c3)OCO4)Oc3ccc(OC(C)C)cc32)s1 (stereo not given) . Value?
## Output 9.00

## Input // returns reported pIC50 for input `CCCNS(=O)(=O)Nc1ncnc(OCCOc2ncc(OC)cn2)c1-c1ccc(Br)cc1`
## Output 8.62

## Input Return reported pIC50; argument: `COc1cnc(OCCOc2nc(-c3ccncc3)nc(NS(=O)(=O)NCc3ccccc3)c2-c2ccc(Cl)cc2)nc1`
## Output 8.70

## Input Give the measured pIC50 of `CCCNS(=O)(=O)Nc1ncnc(OCCOc2ncc(Br)cn2)c1Oc1ccccc1OC` .
## Output 7.81

## Input // lookup pIC50 for `CCCCNS(=O)(=O)Nc1ncnc(OCCOc2ncc(OC)cn2)c1-c1ccc(Br)cc1`
## Output 9.30

## Input What does the data say about its pIC50? Entry: `Cc1ccc(=O)n([C@@H](C(=O)NS(=O)(=O)c2ccc(C(C)C)cc2)c2ccc3c(c2)OCO3)n1`
## Output 7.54
